Provenance of the data: patent US20240409663A1

- Test target: T1, human GPC3 on cells (human, UniProt P51654 25-554)
- T1 construct: whole, on cells; over-expressed on CHOK1 cells or endogenous on HEPG2, Hep3B and Huh-7 hepatocellular carcinoma cells; the cell line is named under assay; also called GPC3-CHOK1 cells; human GPC3 over-expressed CHOK1 cells
- Method summary: FACS, Hep3B cells
Measure name: EC50 (µg/mL)
Give a bare numeral; the unit µg/mL is implied.

Lookup: Name the recorded EC50 for 52H5D3B8-6#-VH4+VL2 (antibody, V domains shown, humanized) VH: QVQLVQSGAEVKKPGASVKVSCKALGYTFTDYEMHWVKQAPGQGLEWIGAIHPGSGGTAYNQKFKGRATMTADKFTSTVYMELSSLRSEDTAVYYCTRYYSYAYWGQGTLVTVSS VL: DIVMTQTPLSLSVTPGQPASISCRSSQSLVHSNGNTYLQWYLQKPGQSPQLLIYKVSNRFSGVPDRFSGSGSGTDFTLKISRVEAEDVGVYFCFQSIHVPYTFGGGTKLEIK .
Found: 0.0627

Lookup: Also 52H5D3B8-6#-VH4+VL3 (antibody, V domains shown, humanized) VH: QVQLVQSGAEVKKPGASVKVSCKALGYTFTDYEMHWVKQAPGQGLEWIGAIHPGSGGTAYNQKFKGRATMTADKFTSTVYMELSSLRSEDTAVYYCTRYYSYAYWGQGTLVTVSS VL: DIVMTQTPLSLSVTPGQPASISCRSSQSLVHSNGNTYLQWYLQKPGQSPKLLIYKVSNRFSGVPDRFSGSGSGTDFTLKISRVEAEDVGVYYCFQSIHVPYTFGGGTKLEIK ?
Found: 0.0511

Lookup: Also 52H5D3B8-6#-VH4+VL4 (antibody, V domains shown, humanized) VH: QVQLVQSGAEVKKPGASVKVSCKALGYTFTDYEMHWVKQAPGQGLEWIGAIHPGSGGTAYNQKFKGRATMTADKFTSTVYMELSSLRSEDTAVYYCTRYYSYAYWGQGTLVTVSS VL: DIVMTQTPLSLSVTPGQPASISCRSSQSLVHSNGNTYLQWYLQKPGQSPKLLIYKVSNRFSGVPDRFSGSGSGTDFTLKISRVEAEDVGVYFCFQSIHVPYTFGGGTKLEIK ?
Found: 0.047
